These entries and their values trace back to patent US6486173B2.

The following compounds are shown together with reported melting point values.

O=C(CCCN1CCc2ccccc2C1)c1ccncc1.O=C(O)/C=C\C(=O)O
108 to 109 °C
COc1cc2c(cc1OC)CN(CCCC(=O)c1ccc(F)cc1)CC2.O=C(O)/C=C\C(=O)O
144 to 146 °C
O=C(CCCN1CCc2ccccc2C1)c1ccc(F)cc1.O=C(O)/C=C\C(=O)O
129 to 130 °C
Cl.O=S(=O)(CCCN1CCc2ccccc2C1)c1ccc(F)cc1
212 to 215 °C

Now look at this one.
Query :: Any idea what its melting point is? The compound is `Cl.O=S(=O)(c1ccc(F)cc1)N1CCC(N2CCc3ccccc3C2)CC1`
Result :: > 240 °C

====

The following compounds are shown together with reported melting point values.

Solved entries:
O=C(O)/C=C\C(=O)O.OC(CCCN1Cc2ccccc2C1)c1ccc(F)cc1 (stereo not drawn)
113 to 114 °C
O=C(CCCN1Cc2cc3ccccc3cc2C1)c1ccc(F)cc1.O=C(O)/C=C\C(=O)O
157 to 158 °C
Fc1ccc(OCCCN2Cc3ccccc3C2)cc1.O=C(O)/C=C\C(=O)O
115 to 117 °C

Query :: Any idea what its melting point is? The compound is `Cl.Fc1ccc(SCCCN2CCc3ccccc3C2)cc1`
Result :: 171 to 173 °C

Query :: Any idea what its melting point is? The compound is `Fc1ccc(C2(CCCN3Cc4ccccc4C3)OCCO2)cc1.O=C(O)/C=C\C(=O)O`
Result :: 141 to 142 °C

Query :: Any idea what its melting point is? The compound is `Cl.Fc1ccc(SCCCN2Cc3ccccc3C2)cc1`
Result :: 125 to 126 °C

Query :: Any idea what its melting point is? The compound is `Cc1ccc(C2(CCCN3Cc4ccccc4C3)OCCO2)cc1.O=C(O)/C=C\C(=O)O`
Result :: 159 to 161 °C (dec.)

Query :: Any idea what its melting point is? The compound is `O=C(CCCN1Cc2cccc3cccc(c23)C1)c1ccc(F)cc1.O=C(O)/C=C\C(=O)O`
Result :: 151 to 155 °C

Query :: Any idea what its melting point is? The compound is `O=C(O)/C=C\C(=O)O.O=S(=O)(CCCN1Cc2ccccc2C1)c1ccc(F)cc1`
Result :: 151 to 152 °C

Query :: Any idea what its melting point is? The compound is `O=C(O)/C=C\C(=O)O.O=c1[nH]c2ccccc2n1CCCN1CCc2ccccc2C1`
Result :: 153 to 154 °C

Query :: Any idea what its melting point is? The compound is O=C(CCCN1CC[C@@H]2CCCC[C@H]2C1)c1ccc(F)cc1.O=C(O)/C=C\C(=O)O (racemic)
Result :: 157 to 158 °C

Query :: Any idea what its melting point is? The compound is `Fc1ccc(C2(CCCN3CCc4ccccc4C3)OCCO2)cc1.O=C(O)/C=C\C(=O)O`
Result :: 160 to 162 °C

Query :: Any idea what its melting point is? The compound is `O=C(CCCN1CCc2ccccc2C1)c1cccs1.O=C(O)/C=C\C(=O)O`
Result :: 154 to 155 °C

Query :: Any idea what its melting point is? The compound is Fc1ccc(C2=NOC(CN3CCc4ccccc4C3)C2)cc1.O=C(O)/C=C\C(=O)O (racemic)
Result :: 153 to 155 °C

Query :: Any idea what its melting point is? The compound is `O=C(O)/C=C\C(=O)O.c1ccc(-c2cc(CN3CCc4ccccc4C3)on2)cc1`
Result :: 190 to 192 °C
